Provide the reported pIC50 of each item.
targetEntity: T1, human IL-2Rβ (CD122 protein, Fc Tag) (27-239) (human, UniProt P14784 27-239)
T1 construct: range 27-239; Bought protein; also called hu-IL-2Rβ subunit; IL-2Rβ subunit; not shown: Fc tag of the bought protein
T1 sequence (looked up): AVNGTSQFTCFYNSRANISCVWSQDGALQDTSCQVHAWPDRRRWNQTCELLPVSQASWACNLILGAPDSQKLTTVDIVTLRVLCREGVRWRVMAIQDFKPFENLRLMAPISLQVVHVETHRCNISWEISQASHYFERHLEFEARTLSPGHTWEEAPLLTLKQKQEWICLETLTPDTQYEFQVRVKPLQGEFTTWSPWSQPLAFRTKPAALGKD
experimentalProtocol: competition ELISA, peptide tracer
pIC50: −log10 of the molar value.

Consider the following illustrative entries.
## Input For the binder SEQ ID NO 4173 (peptide) peptide: GGGELLVDCFKVKVGELCDLFFGGGGGSGGGGSGGVVCQDWEGVELCWQGG , what pIC50 is on record?
## Output > 4.00

## Input Look at this binder and give its reported pIC50. GGAYVHDCFIGQVGDLCDLFLHGG [SEQ ID NO 3202]
## Output > 4.00

We now examine a further binder.
## Input Value lookup for pIC50; key = SEQ ID NO 4175 (peptide) peptide: GGRYVHDCFIAQVGDLCDLFLHGGGGSGGGGSGGGGSGGGGSGGVVCQDWEGVELCWQGG
## Output > 4.00

Source listed as patent US20220119492A1.
